Listed here are binders together with their documented Intensity (%).
Biological target: T1, biotin-labelled EZH2 protein (UniProt Q15910 1-746, limits assumed, biotin label (EZ-link NHS-PEO4-Biotinylation kit))
T1 construct: Probe in solution (1 ug/ml) on the KDM2B peptide microarray; also called NHS-PEO4-Biotinylation-labelled EZH2 protein; recombinant protein
T1 sequence (Q15910 whole entry): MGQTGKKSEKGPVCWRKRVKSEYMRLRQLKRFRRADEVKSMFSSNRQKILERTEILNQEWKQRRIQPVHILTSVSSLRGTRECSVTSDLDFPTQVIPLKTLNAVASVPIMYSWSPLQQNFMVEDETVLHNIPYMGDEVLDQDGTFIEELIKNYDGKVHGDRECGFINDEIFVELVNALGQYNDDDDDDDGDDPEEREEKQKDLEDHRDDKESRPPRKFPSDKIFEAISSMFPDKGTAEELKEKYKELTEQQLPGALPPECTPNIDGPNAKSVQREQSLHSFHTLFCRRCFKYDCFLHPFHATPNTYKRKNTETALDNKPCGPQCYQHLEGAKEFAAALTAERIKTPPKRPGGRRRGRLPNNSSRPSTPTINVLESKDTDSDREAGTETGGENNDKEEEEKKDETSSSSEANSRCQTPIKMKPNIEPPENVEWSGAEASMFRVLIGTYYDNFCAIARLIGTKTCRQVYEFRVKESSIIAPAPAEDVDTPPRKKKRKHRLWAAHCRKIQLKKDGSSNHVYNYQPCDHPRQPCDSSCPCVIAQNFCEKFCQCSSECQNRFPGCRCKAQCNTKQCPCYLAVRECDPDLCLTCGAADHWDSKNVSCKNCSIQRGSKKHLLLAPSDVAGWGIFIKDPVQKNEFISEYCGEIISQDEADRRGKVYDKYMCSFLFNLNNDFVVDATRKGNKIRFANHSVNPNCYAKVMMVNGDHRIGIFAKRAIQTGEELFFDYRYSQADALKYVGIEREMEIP
Experiment: KDM2B peptide array probed with biotin-EZH2 1 ug/ml, SA-HRP/ECL; Remark: noise;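 also: 100% is the highest background-corrected spot optical density on the membrane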
Express it in %; write the number only.

Reported Intensity (%) for LQTSPGSSSHLSPRP [peptide 165] : what is it?
0

What value of Intensity (%) has been reported for the following binder? TAGPSTEGAEGPEEK [peptide 184]
0

Fill blank: measured Intensity (%) of the binder ESDHSRSSSPTAGPS [peptide 182] is ____.
0.36
